Dear all, this message contains IC50 results, target or system PI 4-kinase beta (Homo sapiens (Human), UniProt Q9UBF8).
Structures can show the parent of a compound that is named as a salt.
# output: bare number, implied unit µM

compound | measurement_unit | IC50
Cc1ccc(S(=O)(=O)N[C@H]2CC[C@H](O)CC2)cc1-c1cnc(N)c(-c2cc(C(C)(C)C)no2)c1 [Example 35.2, hydrochloride] | µM | 0.63
Cc1ccc(S(=O)(=O)NCC(C)(C)O)cc1-c1cnc(N)c(-c2nc(C3CC3)no2)c1 [Example 80, hydrochloride] | µM | 3.55

// recorded IC50 for Cc1ncc(-c2cc(-c3cc(S(=O)(=O)NOCC(C)(C)O)ccc3C)cnc2N)o1 [Example 107, hydrochloride] : 0.66

// recorded IC50 for Cc1ncc(-c2cc(-c3cc(S(=O)(=O)NCC4COC4)ccc3C)cnc2N)o1 [Example 104.3] : 4.6

====

Structures can show the parent of a compound that is named as a salt.
Dear all, this message contains IC50 results, target or system mTOR (Homo sapiens (Human), UniProt P42345).
# output: bare number, implied unit µM

compound | IC50 (µM)
Cc1noc(-c2cc(-c3cc(S(=O)(=O)NOC(C)C)ccc3C)cnc2N)n1 | 9.1
Cc1ccc(S(=O)(=O)N[C@H]2CC[C@H](O)CC2)cc1-c1cnc(N)c(-c2cnn(C)c2)c1 | 9.5
Cc1ncc(-c2cc(-c3cc(S(=O)(=O)NCCC(C)(C)O)ccc3C)cnc2N)o1 [Example 13, hydrochloride salt] | 1.6

Now consider the entry below.
Form field, IC50 with mTOR (Homo sapiens (Human), UniProt P42345), item Cc1noc(-c2cc(-c3cc(S(=O)(=O)NCC4CCCO4)ccc3C)cnc2N)n1 (centres unmarked) : 2.4

====

Counter-ions that a name gives are not always drawn.
Dear all, this message contains IC50 results, target or system mTOR (Homo sapiens (Human), UniProt P42345).
# output: bare number, implied unit µM

Use these answered entries as a reference point.
compound | quantity_name | numeric_value
Cc1cc(-c2cc(-c3cc(S(=O)(=O)NCC4(CO)CCCCC4)ccc3C)cnc2N)on1 [Example 37.3] | IC50 | 3
Cc1noc(-c2cc(-c3cc(S(=O)(=O)NOC(C)(C)C)ccc3C)cnc2N)n1 [Example 47] | IC50 | 4
Cc1ncc(-c2cc(-c3cc(S(=O)(=O)NCCC(C)(C)O)ccc3C)cnc2N)s1 [Example 4] | IC50 | 2.63

Now consider the entry below.
// recorded IC50 for Cc1cc(-c2cc(-c3cc(S(=O)(=O)NC[C@H]4CCOC4)ccc3C)cnc2N)on1 [Example 4.7, hydrochloride] : 7.7

====

experimental_system: PI 3-kinase beta (Homo sapiens (Human))
Sequence (P42338 whole entry, looked up): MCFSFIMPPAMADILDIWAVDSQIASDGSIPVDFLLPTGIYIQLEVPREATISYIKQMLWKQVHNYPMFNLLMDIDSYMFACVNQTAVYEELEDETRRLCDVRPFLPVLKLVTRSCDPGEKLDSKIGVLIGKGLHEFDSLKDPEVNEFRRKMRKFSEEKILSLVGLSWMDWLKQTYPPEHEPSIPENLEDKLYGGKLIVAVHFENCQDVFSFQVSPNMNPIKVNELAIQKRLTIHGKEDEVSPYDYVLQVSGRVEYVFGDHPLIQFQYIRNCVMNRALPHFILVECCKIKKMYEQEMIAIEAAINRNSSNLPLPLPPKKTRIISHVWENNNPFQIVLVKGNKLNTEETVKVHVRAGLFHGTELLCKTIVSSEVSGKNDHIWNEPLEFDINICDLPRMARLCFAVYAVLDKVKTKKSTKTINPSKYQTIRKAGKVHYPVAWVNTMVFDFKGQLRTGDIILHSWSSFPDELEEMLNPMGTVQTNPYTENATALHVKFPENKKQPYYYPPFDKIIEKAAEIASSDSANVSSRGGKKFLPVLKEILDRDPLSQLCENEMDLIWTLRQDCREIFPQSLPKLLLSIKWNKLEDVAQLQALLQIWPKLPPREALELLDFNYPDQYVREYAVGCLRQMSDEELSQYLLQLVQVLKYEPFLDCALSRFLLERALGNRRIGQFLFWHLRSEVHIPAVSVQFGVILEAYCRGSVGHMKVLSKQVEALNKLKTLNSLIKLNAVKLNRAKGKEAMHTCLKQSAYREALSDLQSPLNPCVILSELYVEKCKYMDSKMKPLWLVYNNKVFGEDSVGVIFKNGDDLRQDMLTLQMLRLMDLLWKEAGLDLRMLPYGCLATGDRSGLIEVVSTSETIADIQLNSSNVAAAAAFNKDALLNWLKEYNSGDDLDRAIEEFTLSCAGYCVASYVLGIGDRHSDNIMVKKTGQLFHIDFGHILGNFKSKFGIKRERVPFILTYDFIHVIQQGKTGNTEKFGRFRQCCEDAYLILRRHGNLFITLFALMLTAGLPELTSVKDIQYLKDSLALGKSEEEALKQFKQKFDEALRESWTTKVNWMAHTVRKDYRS
Sequence (P27986 whole entry partner, looked up): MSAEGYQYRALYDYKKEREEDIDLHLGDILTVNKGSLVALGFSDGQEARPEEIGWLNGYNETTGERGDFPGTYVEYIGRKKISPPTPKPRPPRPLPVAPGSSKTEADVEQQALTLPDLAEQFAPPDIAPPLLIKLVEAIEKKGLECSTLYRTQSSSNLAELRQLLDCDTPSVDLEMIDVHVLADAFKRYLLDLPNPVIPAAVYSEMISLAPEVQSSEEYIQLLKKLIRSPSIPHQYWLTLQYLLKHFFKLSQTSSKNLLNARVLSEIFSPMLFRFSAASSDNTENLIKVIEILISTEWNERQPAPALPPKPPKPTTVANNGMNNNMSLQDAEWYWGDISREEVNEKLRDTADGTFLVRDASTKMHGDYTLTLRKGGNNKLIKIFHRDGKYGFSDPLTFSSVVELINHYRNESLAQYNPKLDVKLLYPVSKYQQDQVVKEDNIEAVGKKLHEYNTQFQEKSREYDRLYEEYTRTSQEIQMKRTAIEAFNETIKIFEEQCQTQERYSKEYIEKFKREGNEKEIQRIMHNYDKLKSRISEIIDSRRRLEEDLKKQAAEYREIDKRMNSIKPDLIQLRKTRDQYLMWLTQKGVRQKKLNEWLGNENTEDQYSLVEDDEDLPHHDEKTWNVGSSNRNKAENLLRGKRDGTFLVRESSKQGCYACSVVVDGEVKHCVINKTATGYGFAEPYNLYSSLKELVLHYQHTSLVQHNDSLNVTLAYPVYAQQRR
Categories are defined by ranges of IC50, namely low: < 2 µM; intermediate: ≥ 2 µM and < 4 µM; high: ≥ 4 µM

Illustrative cases are given below, each with its answer.
compound | answer_label
Cc1noc(-c2cc(-c3cc(S(=O)(=O)NCC(C)(C)O)c(C)cc3C)cnc2N)n1 [Example 100] | intermediate
Cc1noc(-c2cc(-c3cc(S(=O)(=O)N[C@@H]4CCNC(=O)C4)ccc3C)cnc2N)n1 [Example 37.25] | high
Cc1noc(-c2cc(-c3cc(S(=O)(=O)NCCN)ccc3C)cnc2N)n1 [Example 37.29] | low

We next turn to a different compound, shown below.
Task item: Class? Entry: Cc1cnn(-c2cc(-c3cc(S(=O)(=O)NCC(C)(C)O)ccc3C)cnc2N)c1 [Example 60]
Reply: high
